System: HEL
testName: Cytotoxicity against Vaccinia virus infected HEL cells by trypan blue exclusion method
Assay type: cell-based
conditionInfo: human, hel
Items are presented alongside their recorded CC50.

>  <compound>
O=c1[nH]c(=O)n([C@H]2C[C@H](O)[C@@H](CO)O2)cc1/C=C/Br

>  <CC50>
> 250000 nM

$$$$
>  <compound>
COc1cc(/C=C/C(=O)C(CCOC(=O)CCC(NC(=O)c2ccc(NCc3cnc4nc(N)[nH]c(=O)c4n3)cc2)C(=O)O)C(=O)/C=C/c2ccc(O)c(OC)c2)ccc1O (stereo unspecified)

>  <CC50>
> 11 nM

$$$$
>  <compound>
COc1cc(/C=C/C(=O)CC(=O)/C=C/c2ccc(OC(=O)CCC(NC(=O)c3ccc(NCc4cnc5nc(N)[nH]c(=O)c5n4)cc3)C(=O)O)c(OC)c2)ccc1OC(=O)CCC(NC(=O)c1ccc(NCc2cnc3nc(N)[nH]c(=O)c3n2)cc1)C(=O)O (stereo unspecified)

>  <CC50>
> 82 nM

$$$$
>  <compound>
COc1cc(/C=C/C(=O)CC(=O)/C=C/c2ccc(O)c(OC)c2)ccc1O

>  <CC50>
> 2 nM

$$$$
>  <compound>
COc1cc(/C=C/C(=O)CC(=O)/C=C/c2ccc(OCCOC(=O)CCC(NC(=O)c3ccc(NCc4cnc5nc(N)[nH]c(=O)c5n4)cc3)C(=O)O)c(OC)c2)ccc1O (stereo unspecified)

>  <CC50>
> 119 nM

$$$$
>  <compound>
COc1cc(/C=C/C(=O)CC(=O)/C=C/c2ccc(OC(=O)[C@H](Cc3ccccc3)NC(=O)[C@@H](N)Cc3c[nH]c4ccccc34)c(OC)c2)ccc1OC(=O)[C@H](Cc1ccccc1)NC(=O)[C@@H](N)Cc1c[nH]c2ccccc12

>  <CC50>
19 nM

$$$$

----------
testName: Cytotoxicity against Human coxsackievirus B4 infected human HeLa cells by trypan blue exclusion method
Type: cell-based
conditionInfo: HeLa cells infected with human coxsackievirus B4
metricName: CC50

>  <structureSmilesString>
NC(=O)c1ncn([C@@H]2O[C@H](CO)[C@@H](O)[C@H]2O)n1

>  <reportedResult>
> 250 µM

$$$$

----------
Test system: Vero
testName: Cytotoxicity against Punta Toro virus infected african green monkey Vero cells by trypan blue exclusion method
Type: cell-based
conditionInfo: chlorocebus sabaeus, vero
metricName: CC50 (nM)

>  <compound>
COc1cc(/C=C/C(=O)CC(=O)/C=C/c2ccc(OC(=O)[C@H](Cc3ccccc3)NC(=O)[C@@H](N)Cc3c[nH]c4ccccc34)c(OC)c2)ccc1OC(=O)[C@H](Cc1ccccc1)NC(=O)[C@@H](N)Cc1c[nH]c2ccccc12

>  <assayedSystem>
Vero

>  <metricName>
CC50

>  <signQualifier>
=

>  <reportedResult>
96

$$$$
>  <compound>
COc1cc(/C=C/C(=O)CC(=O)/C=C/c2ccc(O)c(OC)c2)ccc1O

>  <assayedSystem>
Vero

>  <metricName>
CC50

>  <signQualifier>
=

>  <reportedResult>
54

$$$$
>  <compound>
Nc1ncnc2c1ncn2C[C@H](O)CO [(S)-DHPA]

>  <assayedSystem>
Vero

>  <metricName>
CC50

>  <signQualifier>
>

>  <reportedResult>
250000

$$$$
>  <compound>
COc1cc(/C=C/C(=O)CC(=O)/C=C/c2ccc(OCCOC(=O)CCC(NC(=O)c3ccc(NCc4cnc5nc(N)[nH]c(=O)c5n4)cc3)C(=O)O)c(OC)c2)ccc1O (centres undefined)

>  <assayedSystem>
Vero

>  <metricName>
CC50

>  <signQualifier>
>

>  <reportedResult>
119

$$$$
